Percent Effect reference
- Test system: Wolbachia pipientis
- PROTOCOL DETAILS: Anti-Wolbachia Cell-Based Screen
- Assay type: functional
- Parameters: scale not given: in the data most compounds retested in dose-response had high values
- EXPERIMENTAL SETUP: 5 µM
Out of some 48,000 compounds screened, about 13,000 (27%) showed an effect of 50% or more. The list shows a part of the results.
Answer with a number only, understood to be in %.

Consider the worked cases shown below.
COMPOUND: Cc1csc(N2CCCN(C(=O)CCN3CCCC3=O)CC2)n1
Percent Effect [%]: 4.733

COMPOUND: CC(Cn1cccn1)NC(=O)N1CCN(Cc2cccs2)CC1 (configuration not stated)
Percent Effect [%]: 7.648

COMPOUND: CC(Cn1ccnc1)NC(=O)N1CCN(Cc2cccs2)CC1 (configuration not stated)
Percent Effect [%]: 97.63

**Query** # get_value(readout= Percent Effect, system= Wolbachia pipientis) for Cc1ccc(N2CC[C@]3(O)CCN(CCN4CCCC4=O)C[C@@H]3C2)nn1
**Result** -23.37

**Query** Requested read-out Percent Effect, target or system Wolbachia pipientis, entry Cc1ccc(N2CCC3(CCC(=O)N3)CC2)nn1
**Result** -16.01

**Query** What measured Percent Effect is associated with O=C1CCc2cc(NC(=O)N3CCCN(Cc4cccs4)CC3)ccc21 on Wolbachia pipientis?
**Result** 4.237
